experiment: self-splicing fitness, log relative to wild type (ln ratio); higher = more splicing; Tetrahymena group I intron in knt gene, E. coli kanamycin selection, DiMSum; sequences stand for … in CUCUCU…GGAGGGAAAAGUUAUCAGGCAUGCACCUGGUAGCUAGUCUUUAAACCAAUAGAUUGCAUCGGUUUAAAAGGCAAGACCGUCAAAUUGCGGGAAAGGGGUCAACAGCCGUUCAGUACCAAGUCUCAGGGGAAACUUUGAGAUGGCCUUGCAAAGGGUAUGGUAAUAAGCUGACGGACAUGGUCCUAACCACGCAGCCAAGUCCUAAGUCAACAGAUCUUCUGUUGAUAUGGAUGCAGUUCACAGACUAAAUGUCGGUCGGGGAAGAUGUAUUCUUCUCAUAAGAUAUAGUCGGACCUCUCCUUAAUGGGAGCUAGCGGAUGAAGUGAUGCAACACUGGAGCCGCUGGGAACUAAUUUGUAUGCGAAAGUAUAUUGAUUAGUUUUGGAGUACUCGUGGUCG; conditions: 30 °C;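 also: selection with 25 µg/mL kanamycin versus none on LB agar overnight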
test readout: self-splicing fitness (ln)
Please reply with the value in numeric form only.

Would you please look over these solved cases?
CUAAAGCAAUAUUACGUCGU = -4.09
GAUGAGCAAUAUUACGAUAA = -3.49
GCUAAGCAAUAUUACGGAUA = -2.45
CAAUAGCAAUAUUACGUCCA = -2.87
UUAGAGCAAUAUUACGGCAC = -3.59

## Input What self-splicing fitness (ln) value was documented for this sequence, UCACAGCAAUAUUACGGUCC ?
## Output -2.85

## Input Try this sequence too: UCUUAGCAAUAUUACGUGCA
## Output -1.95

* * *

assay: self-splicing fitness, log relative to wild type (ln ratio); higher = more splicing; Tetrahymena group I intron in knt gene, E. coli kanamycin selection, DiMSum; sequences stand for … in CUCUCU…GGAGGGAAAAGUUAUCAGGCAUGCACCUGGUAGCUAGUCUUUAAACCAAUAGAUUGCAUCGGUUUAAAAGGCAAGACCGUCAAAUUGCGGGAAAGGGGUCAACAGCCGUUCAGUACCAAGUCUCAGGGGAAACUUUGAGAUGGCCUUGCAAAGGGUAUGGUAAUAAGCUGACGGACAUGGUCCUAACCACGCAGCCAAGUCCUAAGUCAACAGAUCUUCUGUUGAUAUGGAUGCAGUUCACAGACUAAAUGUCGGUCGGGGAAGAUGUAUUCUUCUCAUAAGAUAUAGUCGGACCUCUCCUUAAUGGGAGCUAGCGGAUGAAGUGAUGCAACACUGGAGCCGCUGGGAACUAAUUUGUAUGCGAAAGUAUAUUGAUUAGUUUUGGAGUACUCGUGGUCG; conditions: 37 °C
test readout: self-splicing fitness (ln)
Please reply with the value in numeric form only.

UCAGAGCAAUAUUACGUUAA = -2.61

API: the following record is the query input.
## Input What self-splicing fitness (ln) value was documented for this sequence, AAAGAGCAAUAUUACGGCCC ?
## Output -1.59

* * *

test: self-splicing fitness, log relative to wild type (ln ratio); higher = more splicing; Tetrahymena group I intron in knt gene, E. coli kanamycin selection, DiMSum; sequences stand for … in CUCUCU…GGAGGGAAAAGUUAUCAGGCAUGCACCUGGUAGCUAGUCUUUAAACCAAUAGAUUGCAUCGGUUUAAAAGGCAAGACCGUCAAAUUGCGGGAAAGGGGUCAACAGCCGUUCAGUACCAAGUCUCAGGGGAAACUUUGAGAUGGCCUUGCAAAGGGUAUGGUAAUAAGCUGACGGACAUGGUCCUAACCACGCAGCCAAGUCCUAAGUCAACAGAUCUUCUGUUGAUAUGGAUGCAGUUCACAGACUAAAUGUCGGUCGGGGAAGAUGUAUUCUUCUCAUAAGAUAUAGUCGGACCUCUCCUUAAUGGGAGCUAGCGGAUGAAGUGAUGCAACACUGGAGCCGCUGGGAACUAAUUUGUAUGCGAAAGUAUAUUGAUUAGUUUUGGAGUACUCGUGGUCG; conditions: 30 °C
test readout: self-splicing fitness (ln)
Please reply with the value in numeric form only.

UAGUAGCAAUAUUACGGAGC = -2.84
AGACAGCAAUAUUACGCAUC = -2.73
UGGCAGCAAUAUUACGCUAA = -0.652
GAUGAGCAAUAUUACGCUUG = -3.15

## Input What self-splicing fitness (ln) value was documented for this sequence, UUCGAGCAAUAUUACGUACG ?
## Output -3.15

## Input Try this sequence too: CUGAAGCAAUAUUACGCUCU
## Output -3.29

## Input Try this sequence too: GGAAAGCAAUAUUACGCUCG
## Output -0.352

## Input Try this sequence too: GUAUAGCAAUAUUACGGCGU
## Output -0.696

## Input Try this sequence too: CCACAGCAAUAUUACGGGCG
## Output -0.605

## Input Try this sequence too: CUUAAGCAAUAUUACGCAUA
## Output -3.2

## Input Try this sequence too: AAUAAGCAAUAUUACGGGCC
## Output -2.8

## Input Try this sequence too: CUCAAGCAAUAUUACGGUAU
## Output -3.61

## Input Try this sequence too: AGGCAGCAAUAUUACGCUCA
## Output -0.172

## Input Try this sequence too: CCACAGCAAUAUUACGCCCA
## Output -2.81

## Input Try this sequence too: UAAUAGCAAUAUUACGUCUU
## Output -3.1

## Input Try this sequence too: AACGAGCAAUAUUACGUAUU
## Output -3.1

## Input Try this sequence too: CCCUAGCAAUAUUACGAGAC
## Output -3.85

## Input Try this sequence too: GUGCAGCAAUAUUACGAAAG
## Output -1.58

## Input Try this sequence too: GUCAAGCAAUAUUACGCCUC
## Output -1.25

## Input Try this sequence too: ACGGAGCAAUAUUACGUCGA
## Output -2.03

## Input Try this sequence too: CACCAGCAAUAUUACGUAAU
## Output -2.63

## Input Try this sequence too: GUGGAGCAAUAUUACGUUUU
## Output -3.35

Attribution: the supplement of paper PMC7877785
